CONDITION_PARAMETERS: 343.15 K; 101.33 kPa; Liquid; Concentric cylinders viscometry
MEASURE: viscosity (mPa·s)
Form entry: value (mPa·s) — number only.

Illustrative cases are given below, each with its answer.
                                   molecule  recorded_measurement
0  CCC[NH+](C)C.O=S(=O)([O-])C(F)(F)F [N,N-dimethylpropan-1-aminium trifluoromethanesulfonate]                    11
1  C=CC[NH+](C)C.O=S(=O)([O-])C(F)(F)F [N,N-dimethylprop-2-en-1-aminium trifluoromethanesulfonate]                  10.4
2    C=CC[NH+](C)CC=C.O=S(=O)([O-])C(F)(F)F                  11.6
3  CCC[NH+](C)CCC.O=S(=O)([O-])C(F)(F)F [N-methyl-N-propylpropan-1-aminium trifluoromethanesulfonate]                  13.6

[ask] What value of viscosity has been recorded for this entry: CC[NH+](C)CC.O=S(=O)([O-])C(F)(F)F [diethylmethylammonium trifluoromethanesulfonate]
[reply] 12.1

[ask] May I ask what viscosity has been recorded for C=CC[NH+](CC)CC.O=S(=O)([O-])C(F)(F)F [N,N-diethylprop-2-en-1-aminium trifluoromethanesulfonate] ?
[reply] 14.9

[ask] Looking for the measured viscosity of CCC[NH+](CC)CC.O=S(=O)([O-])C(F)(F)F [N,N-diethylpropan-1-aminium trifluoromethanesulfonate] , can you help?
[reply] 15.3
